Molecular target: Ubiquitin carboxyl-terminal hydrolase 2 (Homo sapiens)
Assay: Ub-rhodamine 110 based assay for inhibitors Ubiquitin-specific Protease USP2a; note: nearly all actives have a fitted effect of over 50% in size
Conditions: USP2a Ub-rhodamine110 cleavage, fluorescence; series mostly up to 38.3 µM
Inconclusive results are not listed. Calls of active or inactive are those of the source. Calls come from the whole dose curve; as a rule, active = well fitted inhibition curve with a large enough effect; inconclusive = small, poorly fitted or top-dose-only effect, or effect the other way; inactive = flat fitted curve, though single readings scatter.
Possible outcomes: yes (active), no (inactive)

>  <Compound>
O=C1NC(=O)[C@]2(Cc3ccccc3N3CCN(c4ccccc4)CC32)C(=O)N1Cc1ccccc1 (stereo not given in full)

>  <Class Name>
yes

$$$$
>  <Compound>
O=C(COc1ccc(S(=O)(=O)N2CCOCC2)cc1)N1CCN(Cc2ccc3c(c2)OCO3)CC1

>  <Class Name>
no

$$$$
>  <Compound>
COc1ccc(S(=O)(=O)Cc2ccc(C(=O)N3CCC4(CC3)OCCO4)o2)cc1

>  <Class Name>
no

$$$$
>  <Compound>
CC1Oc2cc3c(-c4c(O)cc(O)c5c(O)c6c(cc45)OC(C)C(C)C6=O)c(O)cc(O)c3c(O)c2C(=O)C1C (stereo not given)

>  <Class Name>
yes

$$$$
>  <Compound>
CCCCn1c(=O)c(C(=O)Nc2ccccc2S(N)(=O)=O)c(O)c2ccccc21

>  <Class Name>
yes

$$$$
>  <Compound>
CCCC1=C(C(=O)OCC)C2(C(=O)Nc3ccc(C)cc32)C(C#N)=C(N)O1 (stereo not given)

>  <Class Name>
no

$$$$
>  <Compound>
Nc1ccc(S(=O)(=O)N2CCCCC2c2cccnc2)cc1 (stereo not given)

>  <Class Name>
no

$$$$
>  <Compound>
O=c1[nH]c(=O)n(Cc2ccc(F)cc2)c(O)c1C=NCCCn1ccnc1

>  <Class Name>
no

$$$$
>  <Compound>
Clc1ccc(C(c2ccc(Cl)cc2)n2cc[n+](CC(OCc3ccc(Cl)cc3Cl)c3ccc(Cl)cc3Cl)c2)cc1 (stereo not given)

>  <Class Name>
yes

$$$$
>  <Compound>
Cc1nn(Cc2ccc(Cl)cc2Cl)c(Cl)c1C(=O)Nc1ccc(OC(F)F)cc1

>  <Class Name>
no

$$$$
